These data points were gathered from PubChem BioAssay (NCATS).

Can you tell me activity for the items I'm about to list?
molecular target: Nicotinamide N-methyltransferase (Homo sapiens); assay: Confirmatory Screen for Target Class Profiling of Small Molecule Inhibitors of Methyltransferases (AID 1745852); conditions: MTase-Glo luminescence, SAH detection, recombinant enzyme; measured here: NNMT max response; stronger effect = lower value
# number only, unit % dropped from output

Exam item: Any idea what activity came out for C/C=C(/C)C(=O)O[C@H]1C=C(CO)C(=O)[C@H](OC(=O)/C(C)=C/CO)[C@H]1C(C)C on Nicotinamide N-methyltransferase (Homo sapiens)?
Marked response: -3.04

Exam item: Any idea what activity came out for CCNC(=O)C#Cc1ccc2c(C(=Nc3ccc(CN(C)C)cc3)c3ccccc3)c(O)[nH]c2c1 on Nicotinamide N-methyltransferase (Homo sapiens)?
Marked response: -31

Exam item: Any idea what activity came out for CN(C)[C@@H]1CCc2[nH]c3ccc(NC(=O)c4ccc(F)cc4)cc3c2C1 on Nicotinamide N-methyltransferase (Homo sapiens)?
Marked response: 0.33

Exam item: Any idea what activity came out for Cc1cn(CCN2CCN(c3ccccc3-c3cc(C#N)cc(C(=O)NCCCN4CCCC4)c3)CC2)c2ccccc12 on Nicotinamide N-methyltransferase (Homo sapiens)?
Marked response: -4.29

Exam item: Any idea what activity came out for Cc1nnc(C[C@@H]2C=C(c3ccc(Cl)cc3)c3ccccc3-n3c(C)nnc32)o1 on Nicotinamide N-methyltransferase (Homo sapiens)?
Marked response: -21

Exam item: Any idea what activity came out for CCN(CC)C(=O)c1ccc(Nc2nc(OCC3CCCCC3)c3[nH]cnc3n2)cc1 on Nicotinamide N-methyltransferase (Homo sapiens)?
Marked response: -75.3

Exam item: Any idea what activity came out for N#Cc1cnc2c(Cl)cc(NCc3cn(CCN4CCCCCC4)nn3)cc2c1Nc1ccc(F)c(Cl)c1 on Nicotinamide N-methyltransferase (Homo sapiens)?
Marked response: -26.2

Exam item: Any idea what activity came out for COc1cc(/C=C2\CCCN([C@@H](C)c3ccc(F)cc3)C2=O)ccc1-n1cnc(C)c1 on Nicotinamide N-methyltransferase (Homo sapiens)?
Marked response: -25.5

Exam item: Any idea what activity came out for C=C1C(=O)OC[C@@H]1C/C=C(\C)CC1CC(C)C(=O)O1 (some centres not stated) on Nicotinamide N-methyltransferase (Homo sapiens)?
Marked response: 0.776

Exam item: Any idea what activity came out for C=C1C(=O)OC2/C=C(\CO)CC/C=C(\C=O)C(OC)C(OC(=O)C(C)CC)C12 (configuration not stated) on Nicotinamide N-methyltransferase (Homo sapiens)?
Marked response: 4.11

Exam item: Any idea what activity came out for Fc1ccc2c(CCNCc3cccc(OCC(F)(F)C(F)F)c3)c[nH]c2c1 on Nicotinamide N-methyltransferase (Homo sapiens)?
Marked response: -8.62

Exam item: Any idea what activity came out for N#Cc1ccc(N2N=C3c4ccc(C(=O)O)cc4CC[C@@H]3[C@@H]2C2CCCC2)cc1Cl on Nicotinamide N-methyltransferase (Homo sapiens)?
Marked response: -82.8

----------
experiment: Drug repurposing screens with cells derived from glioblastoma tumor samples (AID 1345199); settings: GBM patient neurospheres viability, ATP luminescence, 48 h; at 45.9 µM (top of the series); tumour line B; further: on the % scale 0 is the no-effect control and ±100 the full control effect; nearly all actives have a fitted effect of over 40% in size
Results filed as inconclusive are left out. Activity calls are given as the source filed them. The call rests on the fitted dose curve; in most records, active means well fitted inhibition curve with a large enough effect; inconclusive means small, poorly fitted or top-dose-only effect; inactive means flat fitted curve, though single readings scatter.
EXPERIMENTAL_READOUT: activity, negative = cell killing

Exam item: Which value of activity, negative = cell killing has been reported for C1CNCCN1 in the records?
Marked response: -11% (inactive)

Exam item: Which value of activity, negative = cell killing has been reported for O=C(O)CC(O)(CC(=O)O)C(=O)O in the records?
Marked response: -4.79% (inactive)

Exam item: Which value of activity, negative = cell killing has been reported for CCCC1([C@H](O)C/C=C/[C@H]2[C@H](O)CC(=O)[C@@H]2CCCCCCC(=O)OC)CCC1 in the records?
Marked response: 0.947% (inactive)

Exam item: Which value of activity, negative = cell killing has been reported for Cc1[nH]cnc1C[C@H]1CCc2c(C)c3ccccc3n2C1=O in the records?
Marked response: 11.6% (inactive)

Exam item: Which value of activity, negative = cell killing has been reported for CCOC(=O)[C@H](CCc1ccccc1)N[C@@H](C)C(=O)N1CC2(C[C@H]1C(=O)O)SCCS2 in the records?
Marked response: -13.1% (inactive)

Exam item: Which value of activity, negative = cell killing has been reported for O=C1O[C@H]2[C@H](O)[C@@H]1OC(O)[C@H]2O (stereo partly specified) in the records?
Marked response: -7.22% (inactive)

Exam item: Which value of activity, negative = cell killing has been reported for Cc1cccc(C)c1N(CCCc1cccnc1)C(=O)C(C)N (stereo unspecified) in the records?
Marked response: -3.85% (inactive)

Exam item: Which value of activity, negative = cell killing has been reported for COc1cc(C[C@@H]2NCCc3cc(O)c(O)cc32)cc(OC)c1OC in the records?
Marked response: 13.6% (inactive)

Exam item: Which value of activity, negative = cell killing has been reported for OCC(O)COc1ccc(Cl)cc1 (stereo unspecified) in the records?
Marked response: -4.12% (inactive)

Exam item: Which value of activity, negative = cell killing has been reported for CC1=C(C(=O)OCCN(Cc2ccccc2)c2ccccc2)C(c2cccc([N+](=O)[O-])c2)C(P2(=O)OCC(C)(C)CO2)=C(C)N1 (stereo unspecified) in the records?
Marked response: 19% (inactive)

Exam item: Which value of activity, negative = cell killing has been reported for C=C1C(=C/C=C2\CCC[C@]3(C)[C@@H]([C@H](C)CCCC(C)(C)O)CC[C@@H]23)C[C@@H](O)C[C@@H]1O in the records?
Marked response: -26.6% (inactive)

Exam item: Which value of activity, negative = cell killing has been reported for CC(=O)S[C@@H]1CC2=CC(=O)CC[C@]2(C)[C@H]2CC[C@@]3(C)[C@@H](CC[C@@]34CCC(=O)O4)[C@H]12 in the records?
Marked response: -27.2% (inactive)

Exam item: Which value of activity, negative = cell killing has been reported for CCN(CC)CCOC(=O)c1ccc(N)cc1Cl in the records?
Marked response: -9.89% (inactive)

Exam item: Which value of activity, negative = cell killing has been reported for CCCCCC(O)/C=C/C=O (stereo unspecified) in the records?
Marked response: 5.27% (inactive)

Exam item: Which value of activity, negative = cell killing has been reported for C/C(=C(\CCOC(=O)c1ccccc1)SS/C(CCOC(=O)c1ccccc1)=C(/C)N(C=O)Cc1cnc(C)nc1N)N(C=O)Cc1cnc(C)nc1N in the records?
Marked response: -18% (inactive)

Exam item: Which value of activity, negative = cell killing has been reported for C=CS(=O)(=O)O in the records?
Marked response: -2.55% (inactive)

Exam item: Which value of activity, negative = cell killing has been reported for C=Cc1ccccc1 in the records?
Marked response: -11.1% (inactive)

Exam item: Which value of activity, negative = cell killing has been reported for C=C[C@]1(C)C[C@@H](OC(=O)CO)[C@]2(C)[C@H](C)CC[C@]3(CCC(=O)[C@H]32)[C@@H](C)[C@@H]1O in the records?
Marked response: -6.6% (inactive)

Exam item: Which value of activity, negative = cell killing has been reported for CCCC(=O)N1CCCN(c2nc(N)c3cc(OC)c(OC)cc3n2)CC1 in the records?
Marked response: -1.44% (inactive)

Exam item: Which value of activity, negative = cell killing has been reported for CCN(CC)c1ccc(N=Nc2ccc(S(=O)(=O)N(C)C)cc2)c(S(=O)(=O)NCC[n+]2ccccc2)c1 in the records?
Marked response: -13% (inactive)

Exam item: Which value of activity, negative = cell killing has been reported for O=c1[nH]cnc2[nH]cc(CN3CCCCC3)c12 in the records?
Marked response: -5.2% (inactive)

----------
system: HaCat; test: Cytotoxic Profiling of Annotated Libraries Using Quantitative High-Throughput Screening (AID 1296008); settings: Five cell lines viability, CellTiter-Glo ATP luminescence, 48-72 h; stronger effect = lower value; further: on the % scale 0 is the no-effect control and ±100 the full control effect; nearly all actives have a fitted effect of over 60% in size
Records with an inconclusive call do not appear.
EXPERIMENTAL_READOUT: max response (%)
# number only, unit % dropped from output

Exam item: Which value of max response has been reported for O=S(=O)(Nc1ccccc1N1CCCCC1)c1ccc(Cl)s1 in the records?
Marked response: -19.5

Exam item: Which value of max response has been reported for CCc1cccc(CC)c1-n1c(C=C(C)C)c(C(=O)N2CCNCC2)cc(-c2nc(-c3ccc(C(F)(F)F)cc3)cs2)c1=O in the records?
Marked response: -5.33

Exam item: Which value of max response has been reported for Cc1cc(F)ccc1-c1nc(NCCN=C(N)NC#N)nc2c1ccc(=O)n2-c1c(F)cccc1F in the records?
Marked response: 4.96

Exam item: Which value of max response has been reported for C=C1C(=O)O[C@@H]2C[C@@]3(C)C[C@@H](O)C[C@H](C)C3=C[C@H]12 in the records?
Marked response: -8.34

Exam item: Which value of max response has been reported for O=C(Nc1ccc(Cl)cc1)C1CCCN(C(=O)c2cccc(-c3ccco3)c2)C1 (stereo not given) in the records?
Marked response: -30
